tested on: Mycobacterium tuberculosis; assay: Antimycobacterial activity against isoniazid, rifampicin and ethambutol-resistant Mycobacterium tuberculosis after 7 days by resazurin method; format: functional; conditions: 168 h
Endpoint name: MIC

// worked examples, MIC included
Molecule	MIC
CO[C@H]1/C=C/O[C@@]2(C)Oc3c(C)c(O)c4c(c3C2=O)C2=NC3(CC[N+]([O-])(CC(C)C)CC3)NC2=C(NC(=O)/C(C)=C\C=C\[C@H](C)[C@H](O)[C@@H](C)[C@@H](O)[C@@H](C)[C@H](OC(C)=O)[C@@H]1C)C4=O (stereo not given in full)	> 10 µg/mL
CO[C@H]1/C=C/O[C@@]2(C)Oc3c(C)c(O)c4c(c3C2=O)C2=NC3(CCN(CC(C)C)CC3)NC2=C(NC(=O)/C(C)=C\C=C\[C@H](C)[C@H](O)[C@@H](C)[C@@H](O)[C@@H](C)[C@H](O)[C@@H]1C)C4=O	> 10 µg/mL
C=CCCCCCCCCC(=O)N1C2=C3NC(=O)/C(C)=C\C=C\[C@H](C)[C@H](O)[C@@H](C)[C@@H](O)[C@@H](C)[C@H](OC(C)=O)[C@H](C)[C@@H](OC)/C=C/O[C@@]4(C)Oc5c(C)c(O)c(c(c5C4=O)C2=NC12CCN(CC(C)C)CC2)C3=O	6 µg/mL
CCCCCCCCCCCCCCCC(=O)N1C2=C3NC(=O)/C(C)=C\C=C\[C@H](C)[C@H](O)[C@@H](C)[C@@H](O)[C@@H](C)[C@H](OC(C)=O)[C@H](C)[C@@H](OC)/C=C/O[C@@]4(C)Oc5c(C)c(O)c(c(c5C4=O)C2=NC12CCN(CC(C)C)CC2)C3=O	> 10 µg/mL
CO[C@H]1/C=C/O[C@@]2(C)Oc3c(C)c(O)c4c(c3C2=O)C2=NC3(CCN(CC(C)C)CC3)N(C(C)=O)C2=C(NC(=O)/C(C)=C\C=C\[C@H](C)[C@H](O)[C@@H](C)[C@@H](O)[C@@H](C)[C@H](OC(C)=O)[C@@H]1C)C4=O	> 10 µg/mL
CO[C@H]1/C=C/O[C@@]2(C)Oc3c(C)c(O)c4c(c3C2=O)C2=NC3(CC[N+]([O-])(CC(C)C)CC3)NC2=C(NC(=O)/C(C)=C\C=C\[C@H](C)[C@H](O)[C@@H](C)[C@@H](O)[C@@H](C)[C@H](O)[C@@H]1C)C4=O (stereo not given in full)	> 10 µg/mL

Consider the molecule shown here: `CO[C@H]1/C=C/O[C@@]2(C)Oc3c(C)c(O)c4c(c3C2=O)C2=NC3(CCN(CC(C)C)CC3)NC2=C(NC(=O)/C(C)=C\C=C\[C@H](C)[C@H](O)[C@@H](C)[C@@H](O)[C@@H](C)[C@H](OC(C)=O)[C@@H]1C)C4=O` What is its recorded MIC?
> 10 µg/mL

Fill in the blank: the reported MIC of CO[C@H]1/C=C/O[C@@]2(C)Oc3c(C)c(O)c4c(c3[C@H]2O)C2=NC3(CC[N+]([O-])(CC(C)C)CC3)NC2=C(NC(=O)/C(C)=C\C=C\[C@H](C)[C@H](O)[C@@H](C)[C@@H](O)[C@@H](C)[C@H](OC(C)=O)[C@@H]1C)C4=O (stereo not given in full) is ____.
> 10 µg/mL

Need MIC of `CO[C@H]1/C=C/O[C@@]2(C)Oc3c(C)c(O)c4c(c3[C@H]2O)C2=NC3(CCN(CC(C)C)CC3)NC2=C(NC(=O)/C(C)=C\C=C\[C@H](C)[C@H](O)[C@@H](C)[C@@H](O)[C@@H](C)[C@H](O)[C@@H]1C)C4=O` , thanks.
> 10 µg/mL

What does the data say about its MIC? Entry: `CO[C@H]1/C=C/O[C@@]2(C)Oc3c(C)c(O)c4c(c3[C@H]2O)C2=NC3(CCN(CC(C)C)CC3)N(C(C)=O)C2=C(NC(=O)/C(C)=C\C=C\[C@H](C)[C@H](O)[C@@H](C)[C@@H](O)[C@@H](C)[C@H](OC(C)=O)[C@@H]1C)C4=O`
8 µg/mL
